Numbers sourced from patent US20260256738A1.

ASSAY EXPLANATION: Single dose PK profile in Colon-26 tumor bearing mice
Format: in vivo
EXPERIMENTAL PARAMETERS: female, mouse, po, 100 mg/kg; plasma; 100 mpk p.o.; 2nd of two values in cell; read-out: Tmax
READOUT: Tmax (min)
Only the number, expressed in min, is required.

For the molecule shown here, CNS(=O)(=O)Nc1cccc(Cc2c(CN(C)C)c3ccc(OC(=O)N(C)C)cc3oc2=O)c1F [Compound A] , give the reported Tmax. 9.6

###

ASSAY EXPLANATION: Single dose PK profile in Colon-26 tumor bearing mice
Type: in vivo
EXPERIMENTAL PARAMETERS: female, mouse, po, 25 mg/kg; tumor; 25 mpk p.o.; 2nd of two values in cell; read-out: Cmax
READOUT: Cmax

What value of Cmax has been recorded for this entry: "CNS(=O)(=O)Nc1cccc(Cc2c(CN(C)C)c3ccc(OC(=O)N(C)C)cc3oc2=O)c1F" 1920 ng/mL
